- assay_comment: autophagy modulators in MEF cells, primary screen, imaging, high-content, MEF GFP-LC3 (AID 463193);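 for toxicity: cell loss after 18 h compound exposure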
- test_settings: MEF GFP-LC3 puncta imaging, at 10 µM; measured here: cell loss, nuclei count
The campaign covered roughly 190,000 compounds. About 1,900 (1%) were called active. For the sample, actives were picked, then their nearest neighbours and some compounds at random.
Measured toxicity accompanies every entry in the list below.

compound: CC(=O)c1sc(NC(=O)CCCOc2ccccc2C)nc1C
toxicity: 7.95%
--
compound: COC(=O)C1=C(NC(=O)C(C)(C)C)CCS1
toxicity: -3.16%
--
compound: COc1cccc(NC(=O)C(C)Oc2ccccc2)c1 (stereo not drawn)
toxicity: 4.79%
--
compound: CC(Oc1ccccc1F)C(=O)NN (stereo not drawn)
toxicity: 3.88%
--
compound: CC(C)OC(=O)C(C#N)c1nc2ccccc2nc1N1CCN(Cc2ccccc2)CC1 (stereo not drawn)
toxicity: 2.68%
--
compound: Cc1c(Br)c([N+](=O)[O-])nn1CC(=O)N1CCN(Cc2ccccc2)CC1
toxicity: 7.29%
--
compound: O=C(O)CC(Cc1ccccc1)C(=O)Nc1ccc([N+](=O)[O-])cc1 (stereo not drawn)
toxicity: -2.46%
--
compound: Cc1ccc(Nc2ccccc2N)cc1
toxicity: 27.6%
--
compound: COc1cccc2sc(NNC(=O)c3nc4ccccc4s3)nc12
toxicity: 0.117%
--
compound: Cc1ccc(Cl)cc1N1CCN(C(=O)c2cccc3c(=O)c(C)c(-c4ccccc4)oc23)CC1
toxicity: 9.69%
--
compound: COc1ccc(NC(=S)NCC2CCN(c3ccc(OC)cc3)C2)cc1 (stereo not drawn)
toxicity: 8.9%
--
compound: N#Cc1ccsc1NC(=O)CN1CCN(S(=O)(=O)c2cc(Cl)ccc2Cl)CC1
toxicity: 41.3%
--
compound: Cc1c(NC(=O)/C=C/C(=O)O)cccc1[N+](=O)[O-]
toxicity: -17.9%
--
compound: CN(C)S(=O)(=O)c1ccc2oc(SCC(=O)Nc3ccccc3F)nc2c1
toxicity: -4.66%
--
compound: O=C(CSc1nc(-c2ccco2)cc(C(F)(F)F)n1)N1CCc2ccccc2C1
toxicity: -3.54%
--
compound: Cc1ccc(/C=C/C(=O)Nc2ccc([N+](=O)[O-])c(NC(=O)/C=C/c3ccc(C)o3)c2)o1
toxicity: 0.679%
--
compound: Cc1ccc(Nc2nnc(SCc3ccccc3)s2)cc1
toxicity: -2.65%
--
compound: COc1ccc(CN2CCCC(C(=O)c3ccc(Cl)cc3)C2)cc1Cn1cncn1 (stereo not drawn)
toxicity: -9.01%
--
compound: CCc1nnc(NC(=O)/C=C/c2ccc(C)o2)s1
toxicity: 1.45%
--
compound: Cc1ccc(NC(=O)c2ccccn2)cc1S(=O)(=O)N1CCOCC1
toxicity: 21.1%
--
compound: Cc1ccc(N=Cc2c(O)n(-c3nccs3)c(=O)c3ccccc23)c(C)c1
toxicity: -7.63%
--
compound: COc1cc(CNc2ncn[nH]2)ccc1OCc1ccccc1C
toxicity: 8.6%
--
compound: Cc1ccc(CC(=O)Nc2cccc(C#N)c2)cc1
toxicity: -8.28%

###

- assay_comment: autophagy modulators in MEF cells, primary screen, imaging, high-content, MEF GFP-LC3 (AID 463193);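 for % cells with GFP-LC3 spots: spot-positive cell cutoff set from DMSO-treated cells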
- test_settings: MEF GFP-LC3 puncta imaging, at 10 µM; stronger effect = higher value
Screen size: about 190,000 compounds; about 1,900 (1%) were called active. The full list was thinned out, with actives kept by preference.

compound: O=C(Cc1ccccc1)NNS(=O)(=O)c1ccc([N+](=O)[O-])cc1
% cells with GFP-LC3 spots (%): 5.31
--
compound: CN(c1ccc2nc3ccccc3c(=O)n2n1)C1CCCCC1
% cells with GFP-LC3 spots (%): 14.8
--
compound: Cc1cccc(C(=O)N2CCc3c([nH]c4ccccc34)C2CC(C)C)n1 (stereo unspecified)
% cells with GFP-LC3 spots (%): 11
--
compound: CCOC(=O)c1sc(NC(=O)CSc2nc(O)c(Cc3ccccc3)c(=O)[nH]2)nc1C
% cells with GFP-LC3 spots (%): 4.28
--
compound: CCOc1ccc(CN2CCN(Cc3ccc(C)o3)CC2CCO)cc1 (stereo unspecified)
% cells with GFP-LC3 spots (%): 0.14
--
compound: COc1cccc(OC)c1C(=O)Nc1ccc(N2CCCCC2)cc1
% cells with GFP-LC3 spots (%): 4.97
--
compound: CNS(=O)(=O)c1ccc(NC(=O)C2CC(=O)N(c3ccc(Cl)cc3)C2)cc1 (stereo unspecified)
% cells with GFP-LC3 spots (%): 8.63
--
compound: COc1ccc(C(=O)Nc2ccc(NC(=O)C(C)C)nc2)cc1
% cells with GFP-LC3 spots (%): 4.13
--
compound: CCCCc1ccc(NC(=S)N2CCCC(CO)C2)cc1 (stereo unspecified)
% cells with GFP-LC3 spots (%): 11.5
--
compound: C/C(=N/O)c1ccc(N2C(=O)C3C4C=CC(C3C2=O)C2C3C(=O)N(c5ccc(/C(C)=N/O)cc5)C(=O)C3C42)cc1 (stereo unspecified)
% cells with GFP-LC3 spots (%): 11.7
--
compound: COc1cccc(C(=O)Nc2ccc(N3CCCC3)cc2)c1
% cells with GFP-LC3 spots (%): 41.2
